Tested on: MV4-11
test-details: Antiproliferative activity against human MV4-11 cells
Assay type: functional, cell-based
Could you please report measured IC50 for the items listed next?
Answers are plain numbers, in µM.

CCN(c1cc(/C=C/c2cccc(CN3CCOCC3)c2)cc(C(=O)NCc2c(C)c3c([nH]c2=O)CCCC3)c1C)C1CCOCC1	9.23
CCN(c1cc(/C=C/c2cccc(CN(C)C)c2)cc(C(=O)NCc2c3c(c(C)[nH]c2=O)CCCC3)c1C)C1CCOCC1	2.8
CCN(c1cc(/C=C/c2ccc(CN3C[C@@H]4C[C@H]3CO4)c(F)c2)cc(C(=O)NCc2c(C)c3c([nH]c2=O)CCCC3)c1C)C1CCOCC1	24.3
CCN(c1cc(/C=C/c2ccc(CN3C[C@@H](C)O[C@@H](C)C3)cc2)cc(C(=O)NCc2c(C)c3c([nH]c2=O)CCCC3)c1C)C1CCOCC1	8.04

From here, focus on the item given below.
# returns recorded IC50 (system: MV4-11) for `CCN(c1cc(/C=C/c2ccc(CN3CCN(C)CC3)cc2)cc(C(=O)NCc2c(C)c3c([nH]c2=O)CCCC3)c1C)C1CCOCC1`
22.6

Value source: ChEMBL document CHEMBL4627254
